Recorded values, source the supplement of paper PMC10567573.

Give protein stability index for every item shown.
B1: FBXO39 (parent)
chain: PSRVHASEVESAVWYVKKFGRYLE

Variants of: B1
Assay notes: protein stability index of a GFP-peptide fusion (GPS, HEK-293T) (PSI 1-6); higher = more stable;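 note: lentivirally expressed fusions sorted by FACS into six bins by GFP to DsRed ratio, PSI derived from sequencing read proportions per bin multiplied by bin number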
Experimental context: c terminus: a fixed tail appended
I'd appreciate a reply containing only the number, no unit.

Looking for the measured protein stability index of `P1L` , can you help?
2.13

Could you tell me which protein stability index is on file for `S7N` ?
2.12

Recorded protein stability index for `W14Y` , please?
2.18

Please look up its protein stability index: `L23N`
2.5

Item `F19V` has what recorded protein stability index?
1.98

Return reported protein stability index; argument: `E24T`
2.55

Given the entry `V16W` , report its measured protein stability index.
2.27

Entry under review: `H5E` . Reported protein stability index?
3.31

If you can, please state the reported protein stability index value of `P1D` .
2.08

Fill in the blank: the reported protein stability index of `S2F` is ____.
1.64

What does the data say about its protein stability index? Entry: `W14T`
3.68

Look up protein stability index: `A12R`
2.54

Would you mind telling me what protein stability index value was observed for `S11F` ?
1.74

So what does the record say about protein stability index for `E24I` ?
2.01

# query: protein stability index of entry `F19P`
2.72

# query: protein stability index of entry `P1R`
1.71

Quick check: protein stability index of `E8G` ?
1.7

Given `E10T` , state its recorded protein stability index.
2.69

Look up protein stability index: `V9K`
1.92

Can you look up the measured protein stability index of `F19S` for me?
2.42

Reported protein stability index, variant `A12M` : ____
2.16

Given `H5F` , state its recorded protein stability index.
2.02

Bench note: what protein stability index did `E8I` show?
2.11

Can you share its protein stability index? I mean this variant: `Y15G`
2.84

Look up protein stability index: `E24P`
2.26

Given the entry `S11P` , report its measured protein stability index.
1.95

Would you mind telling me what protein stability index value was observed for `V4T` ?
1.65

Data request, read-out protein stability index, for `F19H`
3.06

Can you share its protein stability index? I mean this variant: `V13A`
2.44

Item `V4F` has what recorded protein stability index?
1.54

Suppose we examine the variant `V16I` ; what protein stability index value has been reported?
1.72

Quick check: protein stability index of `Y22V` ?
2.28

Quick one: protein stability index of `E24D` ?
1.9

Dear colleague, I am looking for the recorded protein stability index of the following variant: `V9I`
2.01

What does the record list as protein stability index for `F19C` ?
2.04

Need protein stability index of `E10L` , thanks.
3.06

Request the reported protein stability index associated with `A6V`
1.7

Field request: protein stability index | item: `P1I`
1.83

Any idea what protein stability index was measured for `W14K` ?
2.67

Entry under review: `V4P` . Reported protein stability index?
1.92

Quick check: protein stability index of `P1W` ?
2.5

# input variant: `V9N` ; wanted: its protein stability index
2.56

Give the measured protein stability index of `V9F` .
1.62

What does the record list as protein stability index for `L23P` ?
2.58

I'd like to know its protein stability index. The variant in question is `Y15Q`
2.74

# protein stability index lookup, item `E24F`
1.94
